Test system: MCF7 breast
Run Description: NCI-60 one-dose screen, 48 h
Test Settings: 10 µM unless noted
Compounds without any hit were thinned out: in the full panel of roughly 83,000, 20% have a hit. The source made the active and inactive calls. Rule for the calls: active = growth percent below 10; inactive = the rest.
Labels: TRUE = active, FALSE = inactive

Molecule	Qualitative Label
CN(C)c1ccc(/C=C(\C#N)c2cc3ccccc3n2C)cc1	FALSE
O=c1[nH]c(=S)c2c(n1CCCO)CCC2	FALSE
CN1CCN(c2ccc3nc(-c4ccc5nc(-c6ccc(C(F)(F)F)cc6)[nH]c5c4)[nH]c3c2)CC1	TRUE
C=C1CC[C@@H]2[C@@](C)(CCC[C@]2(C)C(=O)O)[C@@H]1CC[C@H](CO)CCO	FALSE
CCCCCCCCCCCCCCn1c2ccccc2c2c3c(c4c5cc(OC)ccc5oc4c21)C(=O)NC3=O	FALSE
COc1ccc(-c2c3c(N)c4c(nc3nc3c2c(C)nn3-c2ccccc2)CCCC4)cc1	FALSE
COc1ccc(/C=C2\SC(=O)N(CN3CCN(c4cc5c(cc4F)c(=O)c(C(=O)O)cn5C4CC4)CC3)C2=O)cc1	FALSE
CC1=C(C/C=C(\C)CCC[C@H](C)CCC[C@H](C)CCCC(C)C)C(=O)c2ccccc2C1=O	FALSE
COc1ccc(/C=N/NC(=O)c2cnn3c2NC(c2ccccc2)C3)cc1OC1CCCC1 (stereo unspecified)	FALSE
O=C1C(N2CCOCC2)=Cc2cccc3cccc1c23	FALSE
O=C1c2ccccc2C(=O)c2c(Nc3ccc(CCO)cc3)ccc(O)c21	FALSE
Cc1nc(NN)c([N+](=O)[O-])c(NN)n1	FALSE
Cc1nc2cc(Nc3nc(N4CCOCC4)nc(N4CCN(C)CC4)n3)ccc2n1Cc1ccccc1	FALSE
CC(C)C1OC23CCCCC2C(C#N)(C#N)C1(C#N)C(=N)O3 (stereo unspecified)	TRUE
Clc1ccc(C2=NN(c3ccccc3)[C@H](c3cn(-c4ccccc4)nc3-c3ccccc3)C2)cc1	FALSE
O=C1c2ccccc2-c2nnc(-c3ccc(Br)cc3)cc21	FALSE
Clc1ccc(Nc2nc(Nc3ccccc3)nc(Nc3ccc(-c4cc(-c5ccc(Cl)cc5)on4)cc3)n2)cc1	FALSE
O=c1[nH]c(=S)[nH]c(=O)n1Cc1cccc2ccccc12	FALSE
O=S(=O)(Nc1ccccc1Cl)c1ccc(-c2cnc(C3CC3)o2)cc1	FALSE
Cc1cc(O)cc2c1[C@H]1CC[C@]3(C)[C@@H](O)CC[C@H]3[C@@H]1C=C2	FALSE
C=C(C)COC(=O)c1ccccc1C(=O)OCC1(C)CO1 (stereo unspecified)	FALSE
